- EXPERIMENTAL_SYSTEM: T1, isolated latch (H3) (Thermotoga maritima, UniProt O51934 388-459)
- T1 sequence: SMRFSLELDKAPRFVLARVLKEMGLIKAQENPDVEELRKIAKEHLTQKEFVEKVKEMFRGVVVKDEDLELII
- PROCEDURE_TEXT: fluorescence anisotropy
Reported Kd by item:

{"BINDER": "60 bp dsDNA (dsDNA) DNA 1: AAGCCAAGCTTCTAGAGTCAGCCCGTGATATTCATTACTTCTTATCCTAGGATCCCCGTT DNA 2: AACGGGGATCCTAGGATAAGAAGTAATGAATATCACGGGCTGACTCTAGAAGCTTGGCTT", "Kd [µM]": 78}
{"BINDER": "60 b ssDNA (ssDNA) DNA: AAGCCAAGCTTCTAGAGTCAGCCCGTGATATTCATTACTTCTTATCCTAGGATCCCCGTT", "Kd [µM]": 64}
